# measuredTarget: Tyrosine-protein kinase Mer (Homo sapiens) (UniProt Q12866)
# Sequence (whole entry): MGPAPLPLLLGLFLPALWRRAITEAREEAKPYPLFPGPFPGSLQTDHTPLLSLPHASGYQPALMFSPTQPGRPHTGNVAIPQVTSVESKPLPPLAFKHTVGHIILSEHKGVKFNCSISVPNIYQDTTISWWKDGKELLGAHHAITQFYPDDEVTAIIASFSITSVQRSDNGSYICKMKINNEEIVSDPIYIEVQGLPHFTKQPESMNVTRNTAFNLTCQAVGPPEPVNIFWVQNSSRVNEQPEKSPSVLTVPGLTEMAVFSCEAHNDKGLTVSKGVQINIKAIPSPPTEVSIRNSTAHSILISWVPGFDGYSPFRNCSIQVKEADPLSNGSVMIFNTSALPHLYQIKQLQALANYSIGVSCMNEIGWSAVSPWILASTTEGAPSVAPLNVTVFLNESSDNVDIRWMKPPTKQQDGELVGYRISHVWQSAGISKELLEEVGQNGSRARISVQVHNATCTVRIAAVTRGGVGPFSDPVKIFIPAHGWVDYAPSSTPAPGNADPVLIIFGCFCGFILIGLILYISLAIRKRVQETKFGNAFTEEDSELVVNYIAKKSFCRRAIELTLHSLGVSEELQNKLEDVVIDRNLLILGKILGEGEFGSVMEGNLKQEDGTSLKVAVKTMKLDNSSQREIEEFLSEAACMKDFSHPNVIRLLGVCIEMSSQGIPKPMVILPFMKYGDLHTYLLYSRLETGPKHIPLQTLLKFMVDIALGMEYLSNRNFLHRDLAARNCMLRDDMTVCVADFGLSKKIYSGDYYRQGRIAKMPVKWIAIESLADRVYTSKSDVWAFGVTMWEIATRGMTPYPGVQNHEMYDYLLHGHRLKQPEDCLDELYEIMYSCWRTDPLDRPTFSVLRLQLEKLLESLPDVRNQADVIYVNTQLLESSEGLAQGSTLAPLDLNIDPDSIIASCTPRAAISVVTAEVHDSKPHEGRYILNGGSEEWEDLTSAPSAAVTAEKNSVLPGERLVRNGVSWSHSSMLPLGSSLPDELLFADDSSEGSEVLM
# cond: at 10 µM
assayEndpoint: inhibition (%)

Solved entries (count: 5):
>>> result("Cn1cc(C=C2C(=O)Nc3cccnc32)c2ccccc21")
-6
>>> result("NS(=O)(=O)c1cccc(N/C=C2\\C(=O)Nc3ccccc32)c1")
0
>>> result("Oc1cccc(-c2nc(-c3ccccc3)[nH]c2-c2ccncc2)c1")
3
>>> result("O=C1Nc2ccccc2/C1=C/Nc1ccc(-n2cncn2)cc1")
10
>>> result("Nc1nccc(C#Cc2cncnc2Nc2ccc(OCc3cccc(F)c3)c(Cl)c2)n1")
13

(P) ON=C1CCc2cc(-c3nc(C4CCNCC4)[nH]c3-c3ccncc3)ccc21
(Q) Cc1ccc2c(c1)/C(=N/Nc1ccc(S(N)(=O)=O)cc1)C(=O)N2
(R) CN(C)C(=O)O[C@H]1CN[C@H](C#Cc2cc3ncnc(Nc4ccc(OCc5cccc(F)c5)c(Cl)c4)c3s2)C1
Request: Ordering criterion: inhibition; begin with the maximum. Write the labels out in the order the request specifies.
Response: Q, P, R
(Q: 66%, P: 38%, R: 2%)

====

# measuredTarget: UniProtKB Q12866
# cond: at 10 µM
assayEndpoint: inhibition (%)

Solved entries (count: 3):
>>> result("c1ccc(Cc2nc3ccc(Nc4ncnc5ccccc45)cc3[nH]2)cc1")
4
>>> result("c1ccc(-c2n[nH]cc2-c2ccnc(-c3ccc(OCCN4CCOCC4)cc3)c2)nc1")
-1
>>> result("CS(=O)(=O)CCN(CC#N)Cc1ccc(-c2ccc3ncnc(Nc4ccc(OCc5cccc(F)c5)c(Cl)c4)c3c2)o1")
66

(P) COc1cc2ncn(-c3cc(OCCc4ccccc4)c(C(N)=O)s3)c2cc1OC
(Q) Fc1ccc(Nc2nccc(-c3c(-c4ccc(C(F)(F)F)cc4)nn4ncccc34)n2)cc1F
Request: Higher inhibition between P and Q ? Give the label under which the chosen entry appears.
Response: P

(P) CCN(CC)Cc1ccc(Nc2nccc(-c3cnn4ncccc34)n2)cc1
(Q) CN(C)c1cc2c(Nc3ccc4nc(Cc5ccccc5)[nH]c4c3)ncnc2cn1
(R) CCn1c(-c2nonc2N)nc2c(N3CCCC3)nccc21
(S) N#Cc1ccc(Oc2nccc(-c3c(-c4ccc(F)cc4)ncn3C3CCNCC3)n2)cc1
(T) N#Cc1ccc2c(-c3ccnc(NC4CC4)n3)c(-c3ccc(F)cc3)nn2c1
Request: Ordering criterion: inhibition; begin with the maximum. Write the labels out in the order the request specifies.
Response: T, P, Q, S, R

(1) CS(=O)(=O)CCNCc1ccc(-c2ccc3ncnc(Nc4ccc(OCc5ccccc5)cc4)c3c2)o1
(2) CS(=O)(=O)CCNCc1coc(-c2ccc3ncnc(Nc4ccc(OCc5ccccc5)cc4)c3c2)c1
Request: Higher inhibition between 1 and 2 ? Give the label under which the chosen entry appears.
Response: 2

====

# measuredTarget: Tyrosine-protein kinase Mer (Homo sapiens)
# cond: at 10 µM
assayEndpoint: inhibition (%)

(I) C/C(Nc1ccc(S(N)(=O)=O)cc1)=C1/C(=O)Nc2ccccc21
(II) COC(=O)Nc1nc2ccc(S(=O)(=O)c3ccc(NC(=O)Nc4cc(C(F)(F)F)ccc4F)cc3)cc2[nH]1
(III) Nc1ncnc2occ(-c3ccc(NC(=O)Nc4cccc(C(F)(F)F)c4)cc3)c12
(IV) CCc1nccc2c1nc(-c1nonc1N)n2CC
Request: Give the ascending ranking of the items by reported inhibition. Write the labels out in the order the request specifies.
Response: IV, I, II, III
(IV: -3%, I: -2%, II: 0%, III: 43%)

(1) CS(=O)(=O)CCNCc1ccc(-c2ccc3ncnc(Nc4ccc(OCc5cccc(C(F)(F)F)c5)cc4)c3c2)o1
(2) CCc1cccc(NC(=O)Nc2ccc(Oc3ccc4nc(NC(=O)OC)[nH]c4c3)cc2)c1
Request: Quick one: lower inhibition, 1 or 2 ? Give the label under which the chosen entry appears.
Response: 1
(1: -2%, 2: 8%)

(a) CCn1c(-c2nonc2N)nc2c(C#CC(C)(C)O)ncc(OC3CCNCC3)c21
(b) CCn1c(-c2nonc2N)nc2c(C#CC(C)(C)O)nc(OC[C@@H](N)c3ccccc3)cc21
Request: Higher inhibition between a and b ? Give the label under which the chosen entry appears.
Response: b
(b: -1%, a: -5%)

====

# measuredTarget: Tyrosine-protein kinase Mer (Homo sapiens) (UniProt Q12866)
# cond: at 10 µM
assayEndpoint: inhibition (%)

Solved entries (count: 5):
>>> result("CN1CCC(n2cnc(-c3ccc(F)cc3)c2-c2ccnc(N)n2)CC1")
-7
>>> result("Fc1cccc(COc2ccc(Nc3ncnc4sc(-c5cccs5)cc34)cc2Cl)c1")
-10
>>> result("CC(=O)Nc1cccc(C#Cc2cncnc2Nc2ccc(OCc3cccc(F)c3)c(Cl)c2)n1")
1
>>> result("COc1cc(Nc2nccc(Nc3ccc4c(C)n[nH]c4c3)n2)cc(OC)c1OC")
-5
>>> result("Cc1cc(O)cc(C)c1/C=C/c1cncc(C(=O)OC(C)(C)C)c1")
-2

(P) CCn1c(-c2nonc2N)nc2ccc(F)cc21
(Q) [O-][S+]1CCN(Cc2ccc(-c3ccc4ncnc(Nc5ccc(OCc6cccc(F)c6)c(Cl)c5)c4c3)o2)CC1
Request: Higher inhibition between P and Q ? Give the label under which the chosen entry appears.
Response: Q

====

# measuredTarget: UniProtKB Q12866
# cond: at 10 µM
assayEndpoint: inhibition (%)

>>> result("Fc1cccc(COc2ccc(Nc3ncncc3C#Cc3ccccc3)cc2Cl)c1")
-5
>>> result("O=C(Nc1ccc(Oc2ccc3[nH]c(NC(=O)c4ccccc4)nc3c2)cc1)Nc1cc(C(F)(F)F)ccc1F")
78
>>> result("COc1ccccc1-c1cc(/C=C2\\C(=O)Nc3ncc(Br)cc32)cc(Br)c1O")
-2
>>> result("c1ccc(COc2ccc(Nc3ncnc4ccc(-c5ccco5)cc34)cc2)cc1")
99
>>> result("COc1cccc(-n2nc(C)c3c(N/N=C(\\C)c4ccncc4)ncnc32)c1")
-8

(A) CN1CCN(Cc2ccc(-c3cc4ncnc(Nc5ccc(OCc6cccc(F)c6)c(Cl)c5)c4s3)o2)CC1
(B) NC(=O)c1cc(-c2ccc(F)cc2)cc(-c2ccncc2)c1N
Request: Higher inhibition between A and B ? Give the label under which the chosen entry appears.
Response: B
(B: 22%, A: -4%)

(P) COc1ccc(-c2cc(-c3c[nH]nc3-c3ccccn3)ccn2)cc1
(Q) COc1cccc(-n2ncc3c(N/N=C/c4cccc(F)c4)ncnc32)c1
Request: Higher inhibition between P and Q ? Give the label under which the chosen entry appears.
Response: Q

====

# measuredTarget: UniProtKB Q12866
# cond: at 10 µM
assayEndpoint: inhibition (%)

Solved entries (count: 3):
>>> result("NC(=O)c1ccc(Oc2nccc(-c3c(-c4ccc(F)cc4)ncn3C3CCNCC3)n2)cc1")
3
>>> result("Cc1cccc(-c2n[nH]cc2-c2ccc3ncccc3n2)n1")
-6
>>> result("CN(c1ccc(NC(=O)NCCN2CCOCC2)cc1)c1ccnc(Nc2ccc(CS(C)(=O)=O)cc2)n1")
101

(1) Nc1nonc1-c1nc2cnccc2n1C1CC1
(2) O=C1Nc2ccc(I)cc2C1=Cc1cc(Br)c(O)c(Br)c1
Request: Quick one: lower inhibition, 1 or 2 ? Give the label under which the chosen entry appears.
Response: 2

(a) FC(F)(F)c1cccc(-c2nn3ncccc3c2-c2ccnc(Nc3ccc4c(c3)OCCO4)n2)c1
(b) CN(C)c1cc2c(Nc3ccc4c(cnn4Cc4ccccc4)c3)ncnc2cn1
Request: Higher inhibition between a and b ? Give the label under which the chosen entry appears.
Response: b
(b: 10%, a: -2%)

(A) COc1cc(N2CCN(C(C)C)CC2)ccc1Nc1nc(Nc2cccc3ncccc23)c2cc[nH]c2n1
(B) COc1ccc(-c2nn3ncccc3c2-c2ccnc(Nc3ccc4c(c3)OCCO4)n2)cc1
(C) Cc1ccc(-c2cc3c(NC(=O)C4CC4)ncnc3o2)cc1
(D) COc1cccc(Nc2nccc(-c3cnn4ncccc34)n2)c1
Request: Ordering criterion: inhibition; begin with the maximum. Write the labels out in the order the request specifies.
Response: D, C, B, A
